Target: hmGluR1 receptor (Homo sapiens, UniProt Q13255)
Construct: expressed in transfected cells
Sequence (Q13255 19-1194): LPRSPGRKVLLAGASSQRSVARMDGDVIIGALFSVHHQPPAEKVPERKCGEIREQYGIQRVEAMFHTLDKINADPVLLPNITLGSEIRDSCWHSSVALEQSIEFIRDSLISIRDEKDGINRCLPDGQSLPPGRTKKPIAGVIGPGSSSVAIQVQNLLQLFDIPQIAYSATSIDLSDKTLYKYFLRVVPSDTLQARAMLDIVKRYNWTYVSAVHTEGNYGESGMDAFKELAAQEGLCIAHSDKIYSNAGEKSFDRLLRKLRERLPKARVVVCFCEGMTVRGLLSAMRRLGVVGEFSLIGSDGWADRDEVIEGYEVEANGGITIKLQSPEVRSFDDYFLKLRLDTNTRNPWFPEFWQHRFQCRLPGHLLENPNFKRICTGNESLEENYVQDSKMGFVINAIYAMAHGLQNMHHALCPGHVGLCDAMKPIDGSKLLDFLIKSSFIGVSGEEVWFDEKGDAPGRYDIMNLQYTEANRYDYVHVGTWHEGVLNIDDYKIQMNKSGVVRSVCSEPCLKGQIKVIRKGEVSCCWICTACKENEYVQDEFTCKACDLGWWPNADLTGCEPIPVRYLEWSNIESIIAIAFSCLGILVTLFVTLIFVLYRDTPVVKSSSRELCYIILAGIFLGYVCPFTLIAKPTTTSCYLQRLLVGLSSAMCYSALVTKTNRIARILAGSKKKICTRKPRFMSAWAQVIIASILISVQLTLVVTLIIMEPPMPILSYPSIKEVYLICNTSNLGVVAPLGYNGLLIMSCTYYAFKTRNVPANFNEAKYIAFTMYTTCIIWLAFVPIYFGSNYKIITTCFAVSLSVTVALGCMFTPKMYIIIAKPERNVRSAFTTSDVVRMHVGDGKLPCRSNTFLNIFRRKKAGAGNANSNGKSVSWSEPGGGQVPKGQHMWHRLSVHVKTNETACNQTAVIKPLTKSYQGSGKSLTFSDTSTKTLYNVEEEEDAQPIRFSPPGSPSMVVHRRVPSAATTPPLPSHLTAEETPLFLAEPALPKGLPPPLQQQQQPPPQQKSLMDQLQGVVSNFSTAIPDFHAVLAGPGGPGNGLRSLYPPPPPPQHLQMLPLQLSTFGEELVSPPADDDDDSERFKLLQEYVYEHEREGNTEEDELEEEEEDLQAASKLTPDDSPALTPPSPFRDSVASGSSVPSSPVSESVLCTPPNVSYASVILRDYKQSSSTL
Assay: IC50 determination: intracellular calcium mobilization (FLIPR) upon Quisqualate stimulation in CHO cells stably expressing hmGluR1
Type: cell-based
Conditions: against Quisqualate 1 μM (EC80), class symbols, read-out: mGIuR 1 IC50
The entries below are paired with their reported IC50.
TEST_READOUT: IC50

[[record]]
compound = "CN(C)c1ccnc2sc3c(=O)n(-c4ccc5scnc5c4)cnc3c12"
observed_result = "< 50 nM"

[[record]]
compound = "O=c1c2sc3c(ccc[n+]3[O-])c2ncn1-c1ccccc1 [12A]"
observed_result = "150 to 1000 nM"

[[record]]
compound = "COc1ccc(-n2cnc3c(sc4nccc(NCC(F)(F)F)c43)c2=O)cc1 [28AW]"
observed_result = "< 50 nM"

[[record]]
compound = "CNc1ccnc2sc3c(=O)n(-c4ccc(C)cc4)cnc3c12 [28AI]"
observed_result = "< 50 nM"

[[record]]
compound = "Cc1ccc(-n2cnc3c(sc4nccc(N(C)C)c43)c2=O)cc1C#N"
observed_result = "50 to 150 nM"

[[record]]
compound = "COc1ccc(-c2c(C(C)=O)c(C)nc3sc4c(=O)n(-c5ccc(Cl)cc5)cnc4c23)cc1"
observed_result = "150 to 1000 nM"

[[record]]
compound = "Cc1ccc(Nn2cnc3c(sc4nccc(N(C)C)c43)c2=O)cc1 [60C]"
observed_result = "< 50 nM"

[[record]]
compound = "Cc1cc(-n2cnc3c(sc4nccc(N(C)C)c43)c2=O)ccc1I"
observed_result = "< 50 nM"

[[record]]
compound = "O=C(Nc1ccnc2sc3c(=O)n(C4CCCCC4)cnc3c12)c1ccc(Cl)cc1 [73G]"
observed_result = "> 1000 nM"

[[record]]
compound = "CCN(C)c1ncnc2sc3c(=O)n(-c4ccc(C)cc4)cnc3c12 [95H]"
observed_result = "< 50 nM"

[[record]]
compound = "CN(C)c1ccnc2sc3c(=O)n(N4CCCC4)cnc3c12 [60I]"
observed_result = "50 to 150 nM"

[[record]]
compound = "COc1ccc(C(=O)Nc2ccnc3sc4c(=O)n(C5CCCCC5)cnc4c23)cc1 [73F]"
observed_result = "> 1000 nM"

[[record]]
compound = "CCNc1ncnc2sc3c(=O)n(-c4ccc(OC(F)(F)F)cc4)cnc3c12 [95V]"
observed_result = "150 to 1000 nM"

[[record]]
compound = "Cc1cc(N(C)C)c2c(n1)sc1c(=O)n(-c3cccnc3)cnc12"
observed_result = "150 to 1000 nM"

[[record]]
compound = "CCN(C)c1ncnc2sc3c(=O)n(-c4ccc(C)nc4)cnc3c12 [95U]"
observed_result = "< 50 nM"

[[record]]
compound = "COc1cccc(-n2cnc3c(sc4nc(N5CCOCC5)c5c(c43)CC(C)(C)OC5)c2=O)c1"
observed_result = "150 to 1000 nM"

[[record]]
compound = "O=c1c2sc3nccc(NC4CCCCC4)c3c2ncn1-c1ccc(Cl)cc1 [28B]"
observed_result = "> 1000 nM"

[[record]]
compound = "CCCc1ccc(-n2cnc3c(sc4nccc(N(C)C)c43)c2=O)cc1"
observed_result = "150 to 1000 nM"

[[record]]
compound = "CN(C)c1ccnc2sc3c(=O)n(CCN4CCOCC4)cnc3c12 [15N]"
observed_result = "> 1000 nM"

[[record]]
compound = "CN(C)c1ccc(F)c2sc3c(=O)n(C4CCCCC4)cnc3c12"
observed_result = "> 1000 nM"

